We begin with a simple list: items and their reported EC50 of GC receptor mediated cAMP production.
study_system: GC receptor
assay_protocol: cell-based or functional assay
Numbered stars: 1 amine (or outer) side, 2 acyl side, 3 side chain; on linkers, the order of the positions; unused ones are H or OH. Square brackets hold non-standard residues; d marks the D form. Side chains are listed from the residue outwards. Ends that are not written are not given here. * marks the point of attachment. C18 diacid = O=C(O)CCCCCCCCCCCCCCCCC(=O)*; γGlu = O=C(O)[C@H](CCC(=O)[*:2])N[*:1]; Palmitoyl = CCCCCCCCCCCCCCCC(=O)*; AEEA = NCCOCCOCC(=O)O; Aib = CC(C)(N)C(=O)O
Field: numeric (nM). Do not append units.

* H[Aib]QGTFTSDYSKYLEEKRAK([AEEA-AEEA-γGlu-C18 diacid])EFVEWLEAGGPSSG-NH2 (not fully specified; printed as HAibQGTFTSDYSKYLEEKRAK**EFVEWLEAGGPSSG-Amid) [Compound 54] | 0.274

// field: EC50 of GC receptor mediated cAMP production; key: H[Aib]QGTFTSDYSKYLEEKRAK([γGlu-γGlu-Palmitoyl])EFVEWLEGGPSSG-NH2 (not fully specified; printed as HAibQGTFTSDYSKYLEEKRAK*EFVEWLEGGPSSG-Amid) [Compound 76] ; value = 0.191

The values you see were collected from patent US20240252592A1.
